assay: self-splicing fitness, log relative to wild type (ln ratio); higher = more splicing; Tetrahymena group I intron in knt gene, E. coli kanamycin selection, DiMSum; sequences stand for … in CUCUCU…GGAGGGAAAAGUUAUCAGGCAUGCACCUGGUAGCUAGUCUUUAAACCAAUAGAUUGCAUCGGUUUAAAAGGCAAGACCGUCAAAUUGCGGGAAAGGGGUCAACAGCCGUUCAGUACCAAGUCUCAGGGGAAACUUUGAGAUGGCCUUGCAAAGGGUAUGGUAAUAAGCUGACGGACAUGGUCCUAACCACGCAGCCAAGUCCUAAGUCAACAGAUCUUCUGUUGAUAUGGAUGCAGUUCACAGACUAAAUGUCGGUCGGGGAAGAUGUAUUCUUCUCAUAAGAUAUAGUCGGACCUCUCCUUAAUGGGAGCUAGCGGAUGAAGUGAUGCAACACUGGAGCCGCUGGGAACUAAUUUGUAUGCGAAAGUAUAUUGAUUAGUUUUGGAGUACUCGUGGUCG; settings: 30 °C;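 further: selection with 25 µg/mL kanamycin versus none on LB agar overnight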
Grouping key: self-splicing fitness (ln). Bins: bin A (below -4), bin B (-4 to below -2), bin C (-2 or more)

Examples from the recorded data:
Exercise: Looking at UUACAGCAAUAUUACGGAUC , which class would you pick?
Key: bin A

Exercise: Cool, now CACCAGCAAUAUUACGUUAU
Key: bin B

Exercise: Cool, now GCUAAGCAAUAUUACGUGAC
Key: bin B

Continuing:
Exercise: Looking at CGUCAGCAAUAUUACGGAUA , which class would you pick?
Key: bin C

Exercise: Cool, now GGGAAGCAAUAUUACGGGUG
Key: bin B

Exercise: Cool, now GAACAGCAAUAUUACGGGCC
Key: bin B

Exercise: Cool, now AAACAGCAAUAUUACGUCGU
Key: bin B

Exercise: Cool, now UAAGAGCAAUAUUACGAGUA
Key: bin B
